Molecular target: human CB2 cannabinoid receptor (Homo sapiens (Human), UniProt P34972)
Sequence (P34972 whole entry): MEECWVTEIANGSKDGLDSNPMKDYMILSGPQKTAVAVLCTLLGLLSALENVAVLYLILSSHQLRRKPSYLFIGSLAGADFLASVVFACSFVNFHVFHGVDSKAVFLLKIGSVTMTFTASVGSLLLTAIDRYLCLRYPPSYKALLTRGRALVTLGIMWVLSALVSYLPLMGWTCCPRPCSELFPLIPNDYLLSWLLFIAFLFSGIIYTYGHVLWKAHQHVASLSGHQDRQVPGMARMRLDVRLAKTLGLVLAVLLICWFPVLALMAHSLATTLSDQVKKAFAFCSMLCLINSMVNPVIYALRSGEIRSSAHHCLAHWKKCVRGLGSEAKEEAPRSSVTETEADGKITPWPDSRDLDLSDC
Assay: Radioligand binding assay, CB2 ([3H]-CP 55,940 competition)
Conditions: plasma membranes of HEK 293 EBNA cells transfected with human CB2; 0.72 nM [3H]-CP 55,940; NA = not active
pIC50: −log10 of the molar value.
Readout Type: pIC50

Look over these answered cases.
Molecule: Cc1ccc(C)c(-n2ncc(NCCN3CCOCC3)c(Cl)c2=O)c1 [Compound 29]
Readout Type: pIC50
Result: < 5.00
--
Molecule: O=c1c(Cl)c(NCCN2CCOCC2)cnn1-c1cc(C(F)(F)F)cc(C(F)(F)F)c1 [Compound 22]
Readout Type: pIC50
Result: < 5.00

I would be grateful if you could share the reported pIC50 for CN(C)c1cnn(-c2cc(C(F)(F)F)cc(C(F)(F)F)c2)c(=O)c1Cl [Compound 21] .
< 5.00

====

We begin with a simple list: items and their reported CB2 Selectivity.
Target: human CB2 cannabinoid receptor (Homo sapiens (Human))
Assay: Radioligand binding assay, CB2 ([3H]-CP 55,940 competition)
Conditions: CB2 versus CB1 binding (ratio of CB1 IC50 to CB2 IC50)

Answered cases to consult:
Compound: CC1(C)CC(n2ncc3nn(CCN4CCOCC4)cc3c2=O)CC(C)(C)C1 [Compound 37]
CB2 Selectivity: >7
//
Compound: CNc1cnn(C2CC(C)(C)CC(C)(C)C2)c(=O)c1 [Compound 6]
CB2 Selectivity: >5
//
Compound: CCCNc1cnn(C2CC(C)(C)CC(C)(C)C2)c(=O)c1 [Compound 8]
CB2 Selectivity: >147

From here, focus on the item given below.
Given the entry CN(C)CCNc1cnn(C2CC(C)(C)CC(C)(C)C2)c(=O)c1Cl [Compound 12] , report its measured CB2 Selectivity.
>49
